- System: Saccharomyces cerevisiae BY4741 SeMeCo community
- method.description: z-score of subpopulation abundance vs DMSO median, subpopulation auxotrophic for HLM; higher = larger share of this subpopulation than in DMSO controls
- condition.notes: 10 µM; 24 h; SM minimal medium; subpopulation (auxotrophy): HLM
Counter-ions that a name gives are not always drawn.
assay.endpoint: z-score of subpopulation abundance

>  <compound>
Oc1c(Br)cc(Br)c2cccnc12

>  <tgt>
Saccharomyces cerevisiae BY4741 SeMeCo community

>  <numeric.readout>
49.4

$$$$
>  <compound>
Cc1ccccc1C(OCCN(C)C)c1ccccc1 (centres undefined) [Orphenadrine Citrate]

>  <tgt>
Saccharomyces cerevisiae BY4741 SeMeCo community

>  <numeric.readout>
-0.97

$$$$
>  <compound>
Nc1nc(/C(=C/CC(=O)O)C(=O)N[C@@H]2C(=O)N3C(C(=O)O)=CCS[C@H]23)cs1 [Ceftibuten dihydrate]

>  <tgt>
Saccharomyces cerevisiae BY4741 SeMeCo community

>  <numeric.readout>
0.65

$$$$
>  <compound>
COc1cc(N)c(Cl)cc1C(=O)NC1CCN(CCCOc2ccc(F)cc2)CC1OC (centres undefined) [Cisapride hydrate]

>  <tgt>
Saccharomyces cerevisiae BY4741 SeMeCo community

>  <numeric.readout>
0.12

$$$$
>  <compound>
Cc1ccsc1/C=C/C1=NCCCN1C [Morantel tartrate]

>  <tgt>
Saccharomyces cerevisiae BY4741 SeMeCo community

>  <numeric.readout>
-0.2

$$$$
>  <compound>
CN(C)CCN1C(=O)c2cccc3cc(N)cc(c23)C1=O [Amonafide]

>  <tgt>
Saccharomyces cerevisiae BY4741 SeMeCo community

>  <numeric.readout>
-0.38

$$$$
>  <compound>
O=C1OCCN1/N=C/c1ccc([N+](=O)[O-])o1

>  <tgt>
Saccharomyces cerevisiae BY4741 SeMeCo community

>  <numeric.readout>
-0.06

$$$$
>  <compound>
OC1(c2ccc(Cl)c(C(F)(F)F)c2)CCN(CCCC(c2ccc(F)cc2)c2ccc(F)cc2)CC1

>  <tgt>
Saccharomyces cerevisiae BY4741 SeMeCo community

>  <numeric.readout>
0.92

$$$$
>  <compound>
O=C(O)Cc1ccccc1Nc1c(Cl)cccc1Cl

>  <tgt>
Saccharomyces cerevisiae BY4741 SeMeCo community

>  <numeric.readout>
0

$$$$

Each recorded value in this set is attributed to the supplement of paper PMC8975748.
